# test.system: human GPBAR1 (Homo sapiens, UniProt Q8TDU6)
# Construct: expressed in transfected cells; host or cells: HEK-293T
# Sequence (Q8TDU6 whole entry): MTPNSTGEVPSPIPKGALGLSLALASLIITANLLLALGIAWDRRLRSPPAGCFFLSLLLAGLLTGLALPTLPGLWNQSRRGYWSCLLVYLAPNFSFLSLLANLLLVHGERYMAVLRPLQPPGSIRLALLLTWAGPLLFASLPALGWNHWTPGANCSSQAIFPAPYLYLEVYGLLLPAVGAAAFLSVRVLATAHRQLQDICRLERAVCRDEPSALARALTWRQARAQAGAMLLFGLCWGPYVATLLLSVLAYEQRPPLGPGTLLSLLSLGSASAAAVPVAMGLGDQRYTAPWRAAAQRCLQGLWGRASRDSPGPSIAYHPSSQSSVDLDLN
# method: GPBAR1 mediated transactivation, CRE-luciferase reporter in transfected HEK-293T cells
# Type: cell-based
# condition.notes: compound at 10 microM, HEK-293T, TLCA = 100%, triplicate
measure.name: GPBAR1 (% of activity in comparison to 10 μM TLCA) (%)

compound | measurement.unit | val
C[C@H](CC#N)[C@H]1CC[C@H]2[C@@H]3C[C@](C)(O)[C@@H]4C[C@H](O)CC[C@]4(C)[C@H]3CC[C@]12C [PBT109B] | % | 95.4
CC[C@@]1(O)C[C@H]2[C@@H]3CC[C@H]([C@H](C)CC#N)[C@@]3(C)CC[C@@H]2[C@@]2(C)CC[C@@H](O)C[C@@H]12 [PBT110A] | % | 65.9
CCC[C@]1(O)C[C@H]2[C@@H]3CC[C@H]([C@H](C)CC#N)[C@@]3(C)CC[C@@H]2[C@@]2(C)CC[C@@H](O)C[C@@H]12 | % | 67.1
